target: NAD-dependent protein deacetylase sirtuin-2 (Homo sapiens, UniProt Q8IXJ6); assay: Inhibition of recombinant human C-terminal His-tagged SIRT2 (50 to 389 end residues) expressed in Escherichia coli using tubulin-K40 peptide in presence of NAD+
observation.type: Ki (µM)
Numbers only, in µM.

Query :: Any idea what Ki was measured for COc1ccc2ccccc2c1Cn1cnc2sc3c(c2c1=O)CCC(NCc1cccnc1)C3 (stereo unspecified) ?
Result :: 0.62

====

molecular target: UniProt Q8IXJ6; assay: Inhibition of recombinant human C-terminal His-tagged SIRT2 (50 to 389 end residues) expressed in Escherichia coli at 10 uM using p53 derived (379 to 382 residues) fluorogenic peptide substrate RHKK(Ac)-AMC preincubated for 10 mins followed by substrate addition in presence of NAD+ by fluorescence assay relative to control
observation.type: inhibition (%)
Answers are plain numbers, in %.

Some solved entries appear below for comparison.
compound | test.system | quantity.unit | inhibition
CC(=O)NCCNC1CCc2c(sc3ncn(Cc4cccc5cccnc45)c(=O)c23)C1 (centres undefined) | UniProt Q8IXJ6 | % | 28
COc1ccc2ccccc2c1Cn1cnc2sc(CCNCc3cccnc3)c(C)c2c1=O | UniProt Q8IXJ6 | % | 93
O=c1c2c3c(sc2ncn1Cc1cccc(-c2ccccc2)c1)CC(NCc1cccc(F)c1)CC3 (centres undefined) | UniProt Q8IXJ6 | % | 63
COc1ccc(CNC2CCc3c(sc4ncn(Cc5cccc6ccccc56)c(=O)c34)C2)cn1 (centres undefined) | UniProt Q8IXJ6 | % | 75
O=c1c2c3c(sc2ncn1Cc1ccccc1)CC(NCC1CCCCC1)CC3 (centres undefined) | UniProt Q8IXJ6 | % | 56
O=c1c2c3c(sc2ncn1Cc1cccc2cccnc12)CC(NC1CCCc2ccccc21)CC3 (centres undefined) | UniProt Q8IXJ6 | % | 80

For each of the compounds below, note its inhibition.
1. COc1ccc2ccccc2c1Cn1cnc2sc3c(c2c1=O)CCC(NCc1cccs1)C3 (centres undefined)
2. COc1cccc(Cn2cnc3sc4c(c3c2=O)CCC(NCC2CCCO2)C4)c1 (centres undefined)

Result ::
69
3

====

Give measured inhibition for each item. Keep answers brief.
Biological target: NAD-dependent protein deacetylase sirtuin-2 (Homo sapiens) (UniProt Q8IXJ6)
Sequence (whole entry): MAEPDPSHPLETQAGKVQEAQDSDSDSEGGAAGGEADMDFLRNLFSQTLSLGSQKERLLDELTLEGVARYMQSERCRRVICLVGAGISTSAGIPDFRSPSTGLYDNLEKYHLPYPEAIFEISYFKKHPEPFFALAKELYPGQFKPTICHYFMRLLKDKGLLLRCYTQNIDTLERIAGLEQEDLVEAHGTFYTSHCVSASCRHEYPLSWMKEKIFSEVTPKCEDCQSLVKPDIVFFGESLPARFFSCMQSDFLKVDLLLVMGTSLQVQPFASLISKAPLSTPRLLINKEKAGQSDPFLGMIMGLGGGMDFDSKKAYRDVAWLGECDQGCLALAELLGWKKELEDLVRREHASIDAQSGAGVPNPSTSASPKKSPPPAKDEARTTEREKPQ
Assay: Inhibition of recombinant human C-terminal His-tagged SIRT2 (50 to 389 end residues) expressed in Escherichia coli at 10 uM using p53 derived (379 to 382 residues) fluorogenic peptide substrate RHKK(Ac)-AMC preincubated for 10 mins followed by substrate addition in presence of NAD+ by fluorescence assay relative to control
Value and unit, in that order.

compound | inhibition
O=c1c2c3c(sc2ncn1Cc1ccc2ccccc2c1)CC(NCCN1CCOCC1)CC3 (centres undefined) | 47%
COc1ccc(Cn2cnc3sc4c(c3c2=O)CCC(NCc2ccccc2Cl)C4)c2ccccc12 (centres undefined) | 65%
COc1ccccc1Cn1cnc2sc3c(c2c1=O)CCC(NCCc1ccncc1)C3 (centres undefined) | 26%
O=c1c2c3c(sc2ncn1Cc1cccc2cccnc12)CC(NCc1ccco1)CC3 (centres undefined) | 80%
COc1cccc(NC2CCc3c(sc4ncn(Cc5cccc6cccnc56)c(=O)c34)C2)c1 (centres undefined) | 67%

Give measured inhibition for every item shown.
1. COc1ccc(Cn2cnc3sc4c(c3c2=O)CCC(NCc2cccs2)C4)c2ccccc12 (centres undefined)
2. COc1ccccc1Cn1cnc2sc3c(c2c1=O)CCC(NCc1ccco1)C3 (centres undefined)
3. O=c1c2c3c(sc2ncn1Cc1cccc2ccccc12)CC(Nc1ccc2c(c1)OCO2)CC3 (centres undefined)
4. N#Cc1ccc(CNC2CCc3c(sc4ncn(Cc5cccc6ccccc56)c(=O)c34)C2)cc1 (centres undefined)
5. COc1ccccc1Cn1cnc2sc3c(c2c1=O)CCC(NC1CCc2ccccc21)C3 (centres undefined)
6. COc1ccccc1CNC1CCc2c(sc3ncn(Cc4cccc5cccnc45)c(=O)c23)C1 (centres undefined)
7. O=c1c2c3c(sc2ncn1Cc1ccc2ccccc2c1)CC(NCC1CCCCC1)CC3 (centres undefined)

Result ::
["71%", "43%", "29%", "66%", "70%", "85%", "87%"]

Each of the following entries comes with a recorded value; kindly state inhibition for each.
1. COc1ccc(CNC2CCc3c(sc4ncn(Cc5ccc6ccccc6c5)c(=O)c34)C2)cn1 (centres undefined)
2. COc1ccccc1CCNC1CCc2c(sc3ncn(Cc4c(OC)ccc5ccccc45)c(=O)c23)C1 (centres undefined)
3. Cc1nn(C)c(C)c1CNC1CCc2c(sc3ncn(Cc4ccc5ccccc5c4)c(=O)c23)C1 (centres undefined)
4. O=c1c2c3c(sc2ncn1Cc1cccc2cccnc12)CC(NCc1cncnc1)CC3 (centres undefined)
5. O=c1c2c3c(sc2ncn1Cc1ccc2ccccc2c1)CC(NCC1CCOC1)CC3 (centres undefined)
6. COc1cccc(NC2CCc3c(sc4ncn(Cc5ccc6ccccc6c5)c(=O)c34)C2)c1 (centres undefined)
7. COc1ccc(CNC2CCc3c(sc4ncn(Cc5ccccc5)c(=O)c34)C2)cc1 (centres undefined)
8. COc1ccc2ccccc2c1Cn1cnc2sc3c(c2c1=O)CCC(NC1CCCc2ccccc21)C3 (centres undefined)

Result ::
1. 76%
2. 65%
3. 87%
4. 75%
5. 58%
6. 37%
7. 45%
8. 34%

====

target: NAD-dependent protein deacetylase sirtuin-2 (Homo sapiens); assay: Inhibition of recombinant human C-terminal His-tagged SIRT2 (50 to 389 end residues) expressed in Escherichia coli at 10 uM using p53 derived (379 to 382 residues) fluorogenic peptide substrate RHKK(Ac)-AMC preincubated for 10 mins followed by substrate addition in presence of NAD+ by fluorescence assay relative to control
Would you mind classing the entries by inhibition? Ranges: low bracket: < 60%; middle bracket: ≥ 60% and < 80%; high bracket: ≥ 80%

compound | classification
COc1ccc2ccccc2c1Cn1cnc2sc3c(c2c1=O)CCC(NCC1CCCO1)C3 (stereo not given) | high bracket
O=c1c2c3c(sc2ncn1Cc1ccc2ccccc2c1)CC(NCc1cncnc1)CC3 (stereo not given) | high bracket
Cc1nn(C)c(C)c1CNC1CCc2c(sc3ncn(Cc4cccc5cccnc45)c(=O)c23)C1 (stereo not given) | middle bracket
O=c1c2c3c(sc2ncn1Cc1cccc2ccccc12)CC(NCCN1CCCC1)CC3 (stereo not given) | low bracket
COc1cccc(Cn2cnc3sc4c(c3c2=O)CCC(NCc2ccco2)C4)c1 (stereo not given) | low bracket
CC(=O)NCCNC1CCc2c(sc3ncn(Cc4cccc5ccccc45)c(=O)c23)C1 (stereo not given) | low bracket
O=c1c2c3c(sc2ncn1Cc1cccc2cccnc12)CC(NC1CCOCC1)CC3 (stereo not given) | low bracket
O=c1c2c3c(sc2ncn1Cc1cccc2ccccc12)CC(NCc1ccccc1)CC3 (stereo not given) | middle bracket
COc1ccc(Cn2cnc3sc4c(c3c2=O)CCC(NCCN2CCOCC2)C4)c2ccccc12 (stereo not given) | middle bracket
O=c1c2c3c(sc2ncn1Cc1cccc2cccnc12)CC(NCc1cccc(F)c1)CC3 (stereo not given) | high bracket

Query :: Please indicate the class for COc1cccc(Cn2cnc3sc4c(c3c2=O)CCC(NCc2ccccc2)C4)c1 (stereo not given) based on its inhibition.
Result :: middle bracket

Query :: Form: Item = O=c1c2c3c(sc2ncn1Cc1cccc2cccnc12)CC(NCC1CCCCC1)CC3 (stereo not given) ; Class = ?
Result :: high bracket

Query :: Where would O=c1c2c3c(sc2ncn1Cc1cccc(-c2ccccc2)c1)CC(NCc1ccc(Cl)cc1)CC3 (stereo not given) land among the classes by reported inhibition?
Result :: low bracket

Query :: Where would N#Cc1ccc(CNC2CCc3c(sc4ncn(Cc5cccc6cccnc56)c(=O)c34)C2)cc1 (stereo not given) land among the classes by reported inhibition?
Result :: high bracket

Query :: Category of COCCNC1CCc2c(sc3ncn(Cc4ccc(OC)c5ccccc45)c(=O)c23)C1 (stereo not given) , please.
Result :: middle bracket

Query :: Using the reported inhibition, which band applies to COc1ccc(CNC2CCc3c(sc4ncn(Cc5ccccc5OC)c(=O)c34)C2)cn1 (stereo not given) ?
Result :: low bracket

Query :: Which bin, given its inhibition, does O=c1c2c3c(sc2ncn1Cc1ccc2ccccc2c1)CC(NCc1ccc(Cl)cc1)CC3 (stereo not given) occupy?
Result :: low bracket

Query :: # bin label for O=c1c2c3c(sc2ncn1Cc1ccc2ccccc2c1)CC(NCc1cccc(Cl)c1)CC3 (stereo not given)
Result :: low bracket

Query :: Which category fits this record: Cc1nn(C)c(C)c1CNC1CCc2c(sc3ncn(Cc4ccccc4)c(=O)c23)C1 (stereo not given)
Result :: low bracket

// provenance: ChEMBL document CHEMBL4004822
